# assay.procedure: NCI Yeast Anticancer Drug Screen. Data for the sgs1 mgt1 strain (AID 161);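 note: 0% = growth of cultures given vehicle only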
# setup.conditions: S. cerevisiae sgs1 mgt1 strain, at 50.0 µM
About 79,000 compounds went through this panel and 15% of them were active in at least one assay; those are over-represented in the sample as a whole. Activity calls are given as the source filed them. Cut-off read from the data, not from the text of the source: active = growth inhibition above about 70%; inactive = the rest.
Outcome codes: 1 (active), -1 (inactive)

[[record]]
compound = "C[C@]12C/C(=C/C(F)(F)F)C(=O)C[C@@H]1CC[C@@H]1[C@@H]2CC[C@]2(C)[C@@H](C(=O)O)CC[C@@H]12"
category = 1

[[record]]
compound = "CC1=C(C(=O)Nc2cccc(C(F)(F)F)c2)C(c2ccccc2F)C(C(=O)Nc2cccc(C(F)(F)F)c2)=C(C)N1"
category = 1

[[record]]
compound = "c1ccc(-c2ccc(-c3ccc(C4=NCCN4)cc3)o2)cc1"
category = 1

[[record]]
compound = "CC(=O)Oc1cc2c(=O)oc3c(OC(C)=O)c(OC(C)=O)c(OC(C)=O)c4c(=O)oc(c1OC(C)=O)c2c34"
category = 1

[[record]]
compound = "COc1ccc(N=Nc2ccc3oc(=O)c(C(=O)Nc4ccc(OC)cc4)cc3c2)cc1"
category = 1

[[record]]
compound = "Oc1c(Cl)c(Cl)c2ncccc2c1Cl"
category = -1

[[record]]
compound = "COCCOC1=C(Cl)C(=O)c2c(O)ccc(O)c2C1=O"
category = 1

[[record]]
compound = "Cc1ccc(C2(O)CC(c3ccc([N+](=O)[O-])o3)=NN2C(=O)COc2ccc(Cl)cc2)cc1 (centres undefined)"
category = -1

[[record]]
compound = "OCCCNc1nc2c(Cl)cc(Cl)cc2c2ccccc12"
category = 1


----------
Recorded growth inhibition values for a group of compounds are listed next.
# assay.procedure: NCI Yeast Anticancer Drug Screen. Data for the rad50 strain (AID 155);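 note: 0% = growth of vehicle-only cultures of the same strain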
# setup.conditions: S. cerevisiae rad50 strain growth inhibition; at 5.0 µM (retest, dose inferred, filed as 0.5); stronger effect = higher value
Compounds without any hit were thinned out: in the full panel of roughly 79,000, 15% have a hit.
endpoint.label: growth inhibition (%)

[[record]]
compound = "COc1cccc(NC(=S)NC2CC(C)CC(C)(C)C2)c1 (stereo unspecified)"
uom = "%"
value = 24

[[record]]
compound = "COc1nc(NC2OCC(O)C(O)C2O)c(Cl)c(=O)n1C (stereo unspecified)"
uom = "%"
value = 0

[[record]]
compound = "Clc1ccccc1/C=C/c1nccc2ccccc12"
uom = "%"
value = 15

[[record]]
compound = "CSC(=Nc1ccc(Cl)cc1)N1CC=Cc2ccccc21"
uom = "%"
value = 2

[[record]]
compound = "CC(=O)Nc1nnc(-c2coc3ccccc3c2=O)s1"
uom = "%"
value = 7

[[record]]
compound = "O=C(CBr)C1(Br)CCN(Cc2ccccc2)CC1"
uom = "%"
value = 19


----------
# assay.procedure: NCI Yeast Anticancer Drug Screen. Data for the cln2 rad14 strain (AID 165);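 note: 0% = growth equal to vehicle treated cultures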
# setup.conditions: S. cerevisiae cln2 rad14 strain, at 5.0 µM (retest, dose inferred, filed as 0.5), stronger effect = higher value
Compounds without any hit were thinned out: in the full panel of roughly 79,000, 15% have a hit.
Listed here: items and their measured growth inhibition.
endpoint.label: growth inhibition (%)

[[record]]
compound = "O=C(Nc1cccc(C(F)(F)F)c1)c1cc(Br)cc(Br)c1O"
endpoint_label = "growth inhibition"
value = 45

[[record]]
compound = "Nc1ccc2c(c1)C(=O)c1ccccc1-2"
endpoint_label = "growth inhibition"
value = 1

[[record]]
compound = "C/C(CCC1CCc2ccccc2C1)=N\\NC(N)=O (stereo unspecified)"
endpoint_label = "growth inhibition"
value = -42

[[record]]
compound = "CN(C)/C=C(\\C(=O)c1ccccc1)n1nc(-c2ccccc2)cc1-c1ccccc1"
endpoint_label = "growth inhibition"
value = 22

[[record]]
compound = "COc1ccccc1C(=O)c1c(C(=O)O)ccc2ccccc12"
endpoint_label = "growth inhibition"
value = -17

[[record]]
compound = "COC(=O)C1=C(C)NC(C)=C([N+](=O)[O-])C1c1cccc(N=O)c1 (stereo unspecified)"
endpoint_label = "growth inhibition"
value = 28

